The reported measurements were obtained from patent US20230374132A1.

This listing pairs binders with measured kon.
target: T1, human CD3E&G complex (Sino Biological Inc., CT041-H0305H) (human, UniProt P07766 23-126; P09693 23-116)
T1 construct: bought heterodimer; also called human CD3E&G antigen
T1 sequence (P07766 23-126, chain 1 of 2): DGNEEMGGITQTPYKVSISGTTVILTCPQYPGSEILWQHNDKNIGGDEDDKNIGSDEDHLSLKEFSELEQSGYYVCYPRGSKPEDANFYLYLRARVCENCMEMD
T1 sequence (P09693 23-116, chain 2 of 2): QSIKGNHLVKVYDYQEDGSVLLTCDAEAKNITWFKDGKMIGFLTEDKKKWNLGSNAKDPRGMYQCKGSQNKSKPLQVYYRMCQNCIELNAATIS
assayProtocol: BLI, antibody on sensor

[
  {
    "binder": "hzsp34.102 (antibody, human IgG1, lambda, L234A L235A, V domains shown, CDR mutant of hzsp34.24; IgG1 L234A L235A, lambda) VH: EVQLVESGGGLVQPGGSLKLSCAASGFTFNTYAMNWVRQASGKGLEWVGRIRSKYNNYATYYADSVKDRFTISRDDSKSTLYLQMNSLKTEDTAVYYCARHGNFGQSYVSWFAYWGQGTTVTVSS VL: QAVVTQEPSLTVSPGGTVTLTCGSSTGAVTTSNYANWVQQKPGQAPRGLIGGTNKRAPGVPARFSGSLLGDKAALTLLGAQPEDEAEYYCALWYSNLWVFGQGTKLTVLG",
    "kon": "222000 M⁻¹ s⁻¹"
  },
  {
    "binder": "hzsp34.94 (antibody, human IgG1, lambda, L234A L235A, V domains shown, CDR mutant of hzsp34.24; IgG1 L234A L235A, lambda) VH: EVQLVESGGGLVQPGGSLKLSCAASGFTFNTYAMNWVRQASGKGLEWVGRIRSKYNNYATYYADSVKDRFTISRDDSKSTLYLQMNSLKTEDTAVYYCARHGNFGQSYASWFAYWGQGTTVTVSS VL: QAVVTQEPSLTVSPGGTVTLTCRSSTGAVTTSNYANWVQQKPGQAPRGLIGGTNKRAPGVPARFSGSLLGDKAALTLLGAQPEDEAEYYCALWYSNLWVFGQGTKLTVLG",
    "kon": "177000 M⁻¹ s⁻¹"
  }
]
